Data origin: ChEMBL document CHEMBL4811241

Test: Cytotoxicity against human MRC-5 SV2 cells assessed as reduction in cell growth measured after 3 days by resazurin dye based fluorometric analysis
Conditions: time 3 day
Outcome Measure: CC50 at 72 h

Some compounds with recorded CC50 at 72 h:
Query :: For the compound shown here, Nc1ncnc2c1c(-c1ccc(F)c(F)c1)nn2[C@@H]1O[C@H](CO)[C@@H](O)[C@H]1O , give the reported CC50 at 72 h.
Result :: > 64 µM

Query :: For the compound shown here, N#Cc1cc(-c2nn([C@@H]3O[C@H](CO)[C@@H](O)[C@H]3O)c3ncnc(N)c23)ccc1Cl , give the reported CC50 at 72 h.
Result :: > 64 µM

Query :: For the compound shown here, Oc1ncnc2[nH]ncc12 , give the reported CC50 at 72 h.
Result :: > 64 µM

Query :: For the compound shown here, Nc1ncnc2c1c(Cl)nn2[C@@H]1O[C@H](CO)[C@@H](O)[C@H]1O , give the reported CC50 at 72 h.
Result :: > 64 µM

Further cases:
Query :: For the compound shown here, Nc1ncnc2c1cnn2[C@@H]1O[C@H](CO)[C@@H](O)[C@H]1O , give the reported CC50 at 72 h.
Result :: > 64 µM

Query :: For the compound shown here, Cc1ccc(-c2nn([C@@H]3O[C@H](CO)[C@@H](O)[C@H]3O)c3ncnc(N)c23)cc1 , give the reported CC50 at 72 h.
Result :: > 64 µM

Query :: For the compound shown here, Nc1ncnc2c1c(-c1ccc(Cl)s1)nn2[C@@H]1O[C@H](CO)[C@@H](O)[C@H]1O , give the reported CC50 at 72 h.
Result :: 47.3 µM

Query :: For the compound shown here, Nc1ncnc2c1c(N)nn2[C@@H]1O[C@H](CO)[C@@H](O)[C@H]1O , give the reported CC50 at 72 h.
Result :: 23 µM

Query :: For the compound shown here, C#Cc1nn([C@@H]2O[C@H](CO)[C@@H](O)[C@H]2O)c2ncnc(N)c12 , give the reported CC50 at 72 h.
Result :: ≥ 46.5 µM

Query :: For the compound shown here, Nc1ncnc2c1c(-c1ccncc1)nn2[C@@H]1O[C@H](CO)[C@@H](O)[C@H]1O , give the reported CC50 at 72 h.
Result :: > 64 µM

Query :: For the compound shown here, Nc1ncnc2c1c(C1CC1)nn2[C@@H]1O[C@H](CO)[C@@H](O)[C@H]1O , give the reported CC50 at 72 h.
Result :: > 64 µM

Query :: For the compound shown here, CCc1nn([C@@H]2O[C@H](CO)[C@@H](O)[C@H]2O)c2ncnc(N)c12 , give the reported CC50 at 72 h.
Result :: > 64 µM

Query :: For the compound shown here, Nc1ncnc2c1c(-c1ccc(F)c(Cl)c1)nn2[C@@H]1O[C@H](CO)[C@@H](O)[C@H]1O , give the reported CC50 at 72 h.
Result :: > 64 µM

Query :: For the compound shown here, Nc1ncnc2c1c(-c1ccccn1)nn2[C@@H]1O[C@H](CO)[C@@H](O)[C@H]1O , give the reported CC50 at 72 h.
Result :: 36.4 µM

Query :: For the compound shown here, Nc1ncnc2c1c(Br)nn2[C@@H]1O[C@H](CO)C[C@H]1O , give the reported CC50 at 72 h.
Result :: 2.2 µM

Query :: For the compound shown here, Nc1ncnc2c1c(Oc1ccccc1)nn2[C@@H]1O[C@H](CO)[C@@H](O)[C@H]1O , give the reported CC50 at 72 h.
Result :: > 64 µM

Query :: For the compound shown here, Nc1ncnc2[nH]ncc12 , give the reported CC50 at 72 h.
Result :: 2.46 µM

Query :: For the compound shown here, C=Cc1nn([C@@H]2O[C@H](CO)[C@@H](O)[C@H]2O)c2ncnc(N)c12 , give the reported CC50 at 72 h.
Result :: > 64 µM

Query :: For the compound shown here, Cc1cc(-c2nn([C@@H]3O[C@H](CO)[C@@H](O)[C@H]3O)c3ncnc(N)c23)ccc1Cl , give the reported CC50 at 72 h.
Result :: > 64 µM

Query :: For the compound shown here, Nc1ncnc2c1c(-c1ccc(F)cc1)nn2[C@@H]1O[C@H](CO)[C@@H](O)[C@H]1O , give the reported CC50 at 72 h.
Result :: > 64 µM

----------
Overview of reported CC50 at 72 h across a group of molecules:
Assay: Cytotoxicity against human MRC-5 SV2 cells assessed as reduction in cell growth measured after 3 days by resazurin dye based fluorometric analysis
Conditions: time 3 day

Query :: For the molecule shown here, COc1ccc(-c2nn([C@@H]3O[C@H](CO)[C@@H](O)[C@H]3O)c3ncnc(N)c23)cc1 , give the reported CC50 at 72 h.
Result :: > 64 µM

Query :: For the molecule shown here, Nc1ncnc2c1c(-c1c[nH]nn1)nn2[C@@H]1O[C@H](CO)[C@@H](O)[C@H]1O , give the reported CC50 at 72 h.
Result :: 0.6 µM

Query :: For the molecule shown here, Nc1ncnc2c1c(C(=O)N1CCCC1)nn2[C@@H]1O[C@H](CO)[C@@H](O)[C@H]1O , give the reported CC50 at 72 h.
Result :: > 64 µM

Query :: For the molecule shown here, CNc1nn([C@@H]2O[C@H](CO)[C@@H](O)[C@H]2O)c2ncnc(N)c12 , give the reported CC50 at 72 h.
Result :: > 64 µM

Query :: For the molecule shown here, Nc1ncnc2c1c(CCc1ccccc1)nn2[C@@H]1O[C@H](CO)[C@@H](O)[C@H]1O , give the reported CC50 at 72 h.
Result :: > 64 µM

Query :: For the molecule shown here, Nc1ncnc2c1cnn2[C@H]1C[C@H](O)[C@@H](CO)O1 , give the reported CC50 at 72 h.
Result :: > 64 µM

Query :: For the molecule shown here, CC(C)c1nn([C@@H]2O[C@H](CO)[C@@H](O)[C@H]2O)c2ncnc(N)c12 , give the reported CC50 at 72 h.
Result :: 10.6 µM

Query :: For the molecule shown here, O=c1[nH]cnc2c1cnn2[C@@H]1O[C@H](CO)[C@@H](F)[C@H]1O , give the reported CC50 at 72 h.
Result :: > 64 µM

----------
System: Trypanosoma cruzi
Experiment: Antitrypanosomal activity against nifurtimox-sensitive Trypanosoma cruzi Tulahuen CL2 infected in Swiss mouse peritoneal macrophages assessed as inhibition of parasite growth measured after 7 days in presence of ABC transporter inhibitor, verapamil by spectrophotometric analysis
Type: functional, organism-based
Conditions: Tulahuen CL2, Peritoneal macrophage, 168 h
Outcome Measure: IC50

Query :: Please state recorded IC50 (tested on Trypanosoma cruzi) of Nc1ncnc2c1c(-c1ccc(Cl)cc1)nn2[C@@H]1O[C@H](CO)[C@@H](O)[C@H]1O
Result :: > 64 µM

----------
Tested on: UGT
Test: Metabolic stability of the compound in mouse liver microsomes S9 fraction assessed as UGT-mediated metabolism by measuring parent compound remaining at 5 uM measured after 60 mins in presence of UDPGA by UPLC-MS analysis
Type: ADME, subcellular
Settings: read-out: Stabilty
Outcome Measure: remaining at 1 h, 5 µM (%)
Express your answer in %, writing the number without its unit.

Query :: For the compound shown here, Nc1ncnc2c1c(-c1ccc(Cl)cc1)nn2[C@@H]1O[C@H](CO)[C@@H](O)[C@H]1O , give the reported remaining at 1 h, 5 µM.
Result :: 115

----------
Overview of reported CC50 at 72 h across a group of molecules:
Test: Cytotoxicity against human MRC-5 SV2 cells assessed as reduction in cell growth measured after 3 days by resazurin dye based fluorometric analysis
Settings: time 3 day

Some molecules with recorded CC50 at 72 h:
Query :: For the molecule shown here, Nc1ncnc2c1c(Br)nn2[C@H]1C[C@H](O)[C@@H](CO)O1 , give the reported CC50 at 72 h.
Result :: 24.9 µM

Query :: For the molecule shown here, Cc1cc(Cl)ccc1-c1nn([C@@H]2O[C@H](CO)[C@@H](O)[C@H]2O)c2ncnc(N)c12 , give the reported CC50 at 72 h.
Result :: > 64 µM

Query :: For the molecule shown here, O=c1[nH]cnc2c1cnn2[C@@H]1O[C@H](CO)C[C@H]1O , give the reported CC50 at 72 h.
Result :: > 64 µM

Query :: For the molecule shown here, Nc1ncnc2c1c(CN1CCOCC1)nn2[C@@H]1O[C@H](CO)[C@@H](O)[C@H]1O , give the reported CC50 at 72 h.
Result :: > 64 µM

Query :: For the molecule shown here, Nc1ncnc2c1c(I)nn2[C@@H]1O[C@H](CO)[C@@H](O)[C@H]1O , give the reported CC50 at 72 h.
Result :: 25.4 µM

Further cases:
Query :: For the molecule shown here, Nc1ncnc2c1c(C(=O)Nc1ccccc1)nn2[C@@H]1O[C@H](CO)[C@@H](O)[C@H]1O , give the reported CC50 at 72 h.
Result :: > 64 µM

Query :: For the molecule shown here, Nc1ncnc2c1c(C#Cc1ccccc1)nn2[C@@H]1O[C@H](CO)[C@@H](O)[C@H]1O , give the reported CC50 at 72 h.
Result :: > 64 µM

Query :: For the molecule shown here, O=c1[nH]cnc2c1c(Br)nn2[C@@H]1O[C@H](CO)[C@@H](F)[C@H]1O , give the reported CC50 at 72 h.
Result :: > 64 µM

Query :: For the molecule shown here, Nc1ncnc2c1c(-c1nnn[nH]1)nn2[C@@H]1O[C@H](CO)[C@@H](O)[C@H]1O , give the reported CC50 at 72 h.
Result :: > 64 µM
